target: T1, human CD36 (on HEK 293 or SCC25 cells) (human, UniProt P16671 2-472); experiment: FACS, HEK 293 cells transiently overexpressing CD36;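 further: antibody binding to transfected cells detected by flow cytometry with a fluorescent anti-human secondary antibody, EC50 from a four-parameter sigmoidal fit of mean fluorescence intensity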
T1 construct: Overexpressed transiently or stably on HEK 293 cells, or stably on SCC25 cells; also called huCD36
T1 sequence (P16671 2-472 limits assumed): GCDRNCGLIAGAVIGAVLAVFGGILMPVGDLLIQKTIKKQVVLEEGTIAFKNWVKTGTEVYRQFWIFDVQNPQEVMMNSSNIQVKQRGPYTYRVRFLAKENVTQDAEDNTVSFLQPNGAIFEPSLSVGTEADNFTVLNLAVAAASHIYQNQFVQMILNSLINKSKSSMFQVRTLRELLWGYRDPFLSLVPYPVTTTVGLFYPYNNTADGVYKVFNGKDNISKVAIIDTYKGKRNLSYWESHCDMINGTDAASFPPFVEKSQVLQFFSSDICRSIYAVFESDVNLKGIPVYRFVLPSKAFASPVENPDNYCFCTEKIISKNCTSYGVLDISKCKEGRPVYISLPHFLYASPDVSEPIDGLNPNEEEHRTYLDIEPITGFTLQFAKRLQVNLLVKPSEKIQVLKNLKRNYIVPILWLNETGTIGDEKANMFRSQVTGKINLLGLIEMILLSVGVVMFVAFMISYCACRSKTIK
Measured EC50 accompanies every entry in the list below.
Reply with just the number (in nM).

Take a look at these entries with their results.
19G04 (antibody, human IgG1, V domains shown, Chimeric: mouse variable regions on human IgG1 LALA (L234A/L235A); also called 019G04) VH: EVQLQQSGPELVKPGASVKISCETSGHTFTEYTMHWVKQSHGKSLEWIGGIYPNNGATKYNQKFKGKATLTVDKSSSTAYMELRSLTSEDSAVYYCARDRYDVWFAYWGQGTLVTVSA VL: ETTVTQSPASLSMAIGEKVTIRCITSTDIDDDMNWYQQKPGEPPKLLISEGNTLRPGVPSRFSSSGYGTDFIFTIENMLSEDVADYYCLQSDNLPLTFGAGTKLELK ... 1.92
30G04 (antibody, human IgG1, V domains shown, Chimeric: mouse variable regions on human IgG1 LALA (L234A/L235A); also called 030G04) VH: EVQLVESGGGVVQPGESLKLSCESNEYEFPSHDMSWVRKTPERRLELVAAINSDGAITYYPDTMERRFIISRDNTKKTLYLQMSSLKSEDTAMYYCARHGQTGTWFAYWGQGTLVTVSA VL: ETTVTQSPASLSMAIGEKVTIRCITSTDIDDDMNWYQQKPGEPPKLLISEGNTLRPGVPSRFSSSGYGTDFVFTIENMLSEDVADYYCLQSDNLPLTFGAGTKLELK ... 0.32
33G04 (antibody, human IgG1, V domains shown, Chimeric: chicken variable regions on human IgG1 LALA (L234A/L235A); also called 033G04) VH: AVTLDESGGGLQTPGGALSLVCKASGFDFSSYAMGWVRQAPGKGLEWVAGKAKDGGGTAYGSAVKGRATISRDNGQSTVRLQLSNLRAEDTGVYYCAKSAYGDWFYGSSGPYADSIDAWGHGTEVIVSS VL: ALTQPSSVSASPGETVKITCSGSSDSWYGWYQQKSPGSALVTVIYDSTNRPSSIPSRFSGSTSGSTGTLTITGVRADDEAVYFCGSFDSSTDSTAFGAGTTLTVL ... 0.31
22G04 (antibody, human IgG1, V domains shown, Chimeric: mouse variable regions on human IgG1 LALA (L234A/L235A)) VH: QVQLQQPGAELVKPGASVKLSCKASGYTFTSYWMHWVKQRPGQGLEWIGEIDPSDSHANYNQKFKGKATLTVDKSSSTAYMQLSSLTSEDSAVYYCAPIHYGLDNWGQGTTLTVSS VL: DIVLTQSQKFMSTSVGDRVSVTCKASQNVGTNVAWYQQKPGQSPKALIYSASYRYSGVPDRFTGSGSGTDFTLTISNVQSEDLAEYFCQQYNSYPLTFGAGTKLELK ... 1.25

Field: next binder
Specify measured EC50 for 32G04 (antibody, human IgG1, V domains shown, Chimeric: mouse variable regions on human IgG1 LALA (L234A/L235A); also called 032G04) VH: EEKLEESGGGLVQPGGSMKLSCVASGFTFSNYWMNWVRQSPEKGLEWVAEIRLKSNNYATHYAESVKGRFTISRDDSKSSVYLQMNNLRAEDTGIYYCTPLLLRWGQGTTLTVSS VL: ENVLTQSPAIMSASPGEKVTMTCRASSSLSSTYLHWYQQKSGASPKLWIYSTSNLASGVPARFSGSGSGTSYSLTISSVEAEDAATYYCQQYSGYPLTFGSGTKLEIK . 0.94
